Taken from patent US20240270821A1.

Target: human GLP1-R (Homo sapiens, UniProt P43220)
Sequence (P43220 24-463): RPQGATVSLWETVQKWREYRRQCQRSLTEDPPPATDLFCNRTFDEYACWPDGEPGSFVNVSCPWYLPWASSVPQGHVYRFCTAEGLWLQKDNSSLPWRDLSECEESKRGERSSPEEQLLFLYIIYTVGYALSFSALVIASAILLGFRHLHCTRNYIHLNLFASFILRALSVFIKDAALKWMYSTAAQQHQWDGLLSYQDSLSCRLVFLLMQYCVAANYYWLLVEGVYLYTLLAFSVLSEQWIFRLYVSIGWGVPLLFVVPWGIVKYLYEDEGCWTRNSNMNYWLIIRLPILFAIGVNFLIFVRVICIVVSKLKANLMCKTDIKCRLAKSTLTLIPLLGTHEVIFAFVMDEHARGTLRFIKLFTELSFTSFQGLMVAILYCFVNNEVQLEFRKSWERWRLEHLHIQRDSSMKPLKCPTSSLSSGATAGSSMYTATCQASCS
Experiment: GLP1-R internalization assay in HEK293 cells
Format: cell-based
Conditions: HEK293 cells expressing SNAP-GLP-1R; read-out: GLP1R Internalization EC50
Starred links: 1 amine or outer side, 2 acyl side, 3 side chain; linkers in the order of their positions; H or OH if unused. Non-standard residues stand in square brackets, D forms with d. Groups on a side chain read outwards from the residue. *: point of attachment. C20 diacid = O=C(O)CCCCCCCCCCCCCCCCCCC(=O)*; C18 diacid = O=C(O)CCCCCCCCCCCCCCCCC(=O)*; γGlu = O=C(O)[C@H](CCC(=O)[*:2])N[*:1]; αMeL = CC(C)C[C@](C)(N)C(=O)O; Orn = NCCC[C@H](N)C(=O)O; AEEA = NCCOCCOCC(=O)O; Aib = CC(C)(N)C(=O)O
I'd be grateful if you could share measured pEC50 for these entries.
Give bare numbers, as −log10 of the molar value.

Past entries and their recorded results:
{"substance": "H-Y[Aib]QGTFTSDFSK[αMeL]LDKK([AEEA-γGlu-C20 diacid])AQ[Aib]AFIEWLLAGGPSSGEPPPSGE-NH2 [Example 21]", "pEC50": 7.06}
{"substance": "H-Y[Aib]QGTFTSDFSK[αMeL]LDKK([AEEA-γGlu-C20 diacid])AQ[Aib]AFIEYLLAGGPSSGAPPPSGG-NH2 [Example 12]", "pEC50": 7.31}

Next up:
Ask: Query for human GLP1-R (Homo sapiens, UniProt P43220): what pEC50 does the record show for H-Y[Aib]QGTFTSDFS[Orn][αMeL]LDKK([AEEA-γGlu-C18 diacid])AQ[Aib]AFIEYLLEGGPSSGAPPPGGT-NH2 [Example 158] ?
Result: 6.98
